- Tested on: hepatitis virus B (HBV) infection
- protocol: iCell hepatocytes assay, delayed assay (compounds added three days after HBV infection)
- Type: cell-based
property-measured: Delayed assay HBs ELISA % inhibition

COCCCOc1cc2c(cc1Cl)-c1c(cc(C(=O)O)c(=O)n1C1CC1)CO2 :: ++ (50-75%)
COCCCOc1cc2c(cc1Cl)-c1c(cc(C(=O)O)c(=O)n1C1CC1)[C@H](C1(C)COC1)O2 :: ++ (50-75%)
COCCCOc1cc2c(cc1Cl)-c1c(cc(C(=O)O)c(=O)n1C1CC1)C(C(C)(C)COC)O2 (stereo not drawn) :: ++ (50-75%)
